Each item that follows carries a reported EC50.
molecular target: cat T1R1/T1R3 receptor (Felis catus, UniProt E3UMS2); assay: cell-based; type: cell-based
Structures can show the parent of a compound that is named as a salt.

- compound: "Nc1nc2c(ncn2[C@H]2CC(O)[C@@H](COP(O)(O)=S)O2)c(=O)[nH]1 (stereo in doubt)"
  tested target: "cat T1R1/T1R3 receptor (Felis catus, UniProt E3UMS2)"
  result units: "µM"
  EC50: 10
- compound: "Nc1nc2c(ncn2[C@@H]2O[C@H](COP(=O)(O)OP(=O)(O)OP(=O)(O)O)[C@@H](O)[C@H]2O)c(=O)[nH]1 [Guanosine 5′-triphosphate]"
  tested target: "cat T1R1/T1R3 receptor (Felis catus, UniProt E3UMS2)"
  result units: "µM"
  EC50: 700
- compound: "Nc1nc2c(ncn2[C@@H]2O[C@H](COP(O)(O)=S)C(O)C2O)c(=O)[nH]1 (stereo partly shown) [Guanosine-5′-monophosphorothioate]"
  tested target: "cat T1R1/T1R3 receptor (Felis catus, UniProt E3UMS2)"
  result units: "µM"
  EC50: 10
- compound: "Nc1nc2c(ncn2[C@H]2O[C@@H](COP(=O)(O)O)[C@H](O)[C@@H]2O)c(=O)[nH]1 (stereo in doubt) [Guanosine monophosphate disodium salt, reference compound]"
  tested target: "cat T1R1/T1R3 receptor (Felis catus, UniProt E3UMS2)"
  result units: "µM"
  EC50: 30

###

biological target: T1R1/T1R3 receptor (Felis catus, UniProt E3UMS2); test: Agonist screening of transmembrane compounds on T1R1/T1R3 in HEK293 cells (Example 8); type: cell-based, cat; conditions: transmembrane compound tested at 0.01, 0.1 and 1 mM; HEK293 cells expressing T1R1/T1R3; calcium readout
Counter-ions that a name gives are not always drawn.

- molecule: "COc1ccc(C(=O)CN2C(=O)C(=O)N(Cc3ccccc3)C2=O)c(OC)c1"
  tested target: "T1R1/T1R3 receptor (Felis catus, UniProt E3UMS2)"
  T1R1/T1R3 agonist: "No"
- molecule: "O=C(CN1C(=O)C(=O)N(Cc2ccccc2)C1=O)c1ccc(Br)cc1"
  tested target: "T1R1/T1R3 receptor (Felis catus, UniProt E3UMS2)"
  T1R1/T1R3 agonist: "No"
- molecule: "O=C(CN1C(=O)C(=O)N(CCc2cccs2)C1=O)c1cccc2ccccc12"
  tested target: "T1R1/T1R3 receptor (Felis catus, UniProt E3UMS2)"
  T1R1/T1R3 agonist: "No"
- molecule: "O=C(CN1C(=O)C(=O)N(Cc2ccccc2)C1=O)c1ccc(Cl)s1"
  tested target: "T1R1/T1R3 receptor (Felis catus, UniProt E3UMS2)"
  T1R1/T1R3 agonist: "No"
- molecule: "COC(=O)[C@H](Cc1ccccc1)NCc1ccccc1 [Formula 15, hydrochloride]"
  tested target: "T1R1/T1R3 receptor (Felis catus, UniProt E3UMS2)"
  T1R1/T1R3 agonist: "Yes"
- molecule: "COC(=O)[C@@H](Cc1ccccc1)NCc1ccccc1.Cl"
  tested target: "T1R1/T1R3 receptor (Felis catus, UniProt E3UMS2)"
  T1R1/T1R3 agonist: "Yes"
- molecule: "COC(=O)C(NCc1ccccc1)c1ccccc1 (stereo not drawn) [Formula 19, Methyl-2-benzylamino-2-phenylacetate]"
  tested target: "T1R1/T1R3 receptor (Felis catus, UniProt E3UMS2)"
  T1R1/T1R3 agonist: "Yes"
- molecule: "COc1ccccc1C(=O)CN1C(=O)C(=O)N(Cc2cccs2)C1=O"
  tested target: "T1R1/T1R3 receptor (Felis catus, UniProt E3UMS2)"
  T1R1/T1R3 agonist: "No"
- molecule: "N#Cc1cccc(NC(=O)CN2C(=O)C(=O)N(Cc3ccccc3)C2=O)c1"
  tested target: "T1R1/T1R3 receptor (Felis catus, UniProt E3UMS2)"
  T1R1/T1R3 agonist: "No"
